Recorded values, source the supplement of paper PMC7156485.

Please provide measured H1.0 immunofluorescence intensity for the entries that follow.
System: TDF
Experiment: H1.0 immunofluorescence intensity relative to DMSO (% of DMSO); higher = stronger H1.0 induction, active = 120 or more;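 further: TDF is a line of transformed human dermal fibroblasts of mesenchymal origin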
Settings: concentration: 10 µM; 24 h
Reply with the value as a number alone.

[in] # return H1.0 immunofluorescence intensity of COc1cccc2c1cc([N+](=O)[O-])c1c(C(=O)O)cc3c(c12)OCO3 (system: TDF)
[out] 98.4

[in] # return H1.0 immunofluorescence intensity of CC1(C)CCCC(C)(C)N1[O] (system: TDF)
[out] 100

[in] # return H1.0 immunofluorescence intensity of C=CCN1CCC23c4c5ccc(O)c4OC2C(=NNC(=O)c2ccccc2)CCC3(O)C1C5 (centres undefined) [Naloxone benzoylhydrazone] (system: TDF)
[out] 101

[in] # return H1.0 immunofluorescence intensity of C=C1CC2C(CCC3(C)C(=O)CCC23)C2(C)C=CC(=O)C=C12 (centres undefined) (system: TDF)
[out] 98.1

* * *

Please provide measured H1.0 immunofluorescence intensity for the entries that follow.
Test system: HCC1569
Experiment: H1.0 immunofluorescence intensity relative to DMSO (% of DMSO); higher = stronger H1.0 induction, active = 140 or more
Details: concentration: 10 µM; 24 h

[in] Please give measured H1.0 immunofluorescence intensity of the following entry: Cc1ccc(S(=O)(=O)NC(CCCCN)C(=O)CCl)cc1.Cl [Na-p-Tosyl-L-lysine chloromethyl ketone hydrochloride]
[out] 101 (inactive)

[in] Please give measured H1.0 immunofluorescence intensity of the following entry: C[Se]CC(N)C(=O)O.Cl (centres undefined) [Se-(methyl)selenocysteine hydrochloride]
[out] 98.1 (inactive)

[in] Please give measured H1.0 immunofluorescence intensity of the following entry: CC1(C)CCCC(C)(C)N1[O]
[out] 99.1 (inactive)

[in] Please give measured H1.0 immunofluorescence intensity of the following entry: CC(C)(C)C1(O)CC2OC(=O)CC23C(=O)OC2OC(=O)C(O)C231 (centres undefined) [Bilobalide]
[out] 97.2 (inactive)

* * *

System: TDF
Test: H1.0 immunofluorescence intensity relative to DMSO (% of DMSO); higher = stronger H1.0 induction, active = 120 or more
Conditions: concentration: 10 µM; 24 h
Classes to choose from: true (1) for active, false (0) for inactive

[in] Answer briefly: the call reported for CC12CCC3C(CCC4=C(O)C(=O)CCC43C)C1CCC2=O (configuration not stated) in this assay.
[out] false (0)

[in] Answer briefly: the call reported for C[N+](C)(C)CC#CCOC(=O)Nc1cccc(Cl)c1.[Cl-] in this assay.
[out] false (0)

[in] Answer briefly: the call reported for NC(Cc1ccc(N(CCCl)CCCl)cc1)C(=O)O (configuration not stated) in this assay.
[out] false (0)

[in] Answer briefly: the call reported for C=C1C(C)C2C(Cc3ccccc3)NC(=O)C23OC(=O)C=CC(O)CCCC(C)CC=CC3C1O (configuration not stated) in this assay.
[out] true (1)

[in] Answer briefly: the call reported for CC12CCC3C(CCC4CC(O)CCC43C)C1CCC2=O (configuration not stated) in this assay.
[out] false (0)

[in] Answer briefly: the call reported for C[N+]1(C)C2CCC1CC(OC(=O)c1c[nH]c3ccccc13)C2.[I-] (configuration not stated) [3-Tropanylindole-3-carboxylate methiodide] in this assay.
[out] false (0)

[in] Answer briefly: the call reported for CCNC1=Nc2ccc(Cl)cc2C(C)(c2ccccc2)O1.Cl (configuration not stated) in this assay.
[out] false (0)
